System: NCI/ADR-RES ovarian
protocol-summary: NCI tumour cell line growth inhibition, 48 h
Each entry below carries its reported GI50.
readout-kind: GI50

In [3]: df
Out[3]:
                                    compound    system_under_test    result
 0       Cc1cc(Nc2cccc(F)c2)nc(NCc2ccccc2)n1  NCI/ADR-RES ovarian   6.38 µM
 1  CCOC(=O)C1=C(C)N(c2ccc(OC)cc2)C2(O)C=CC(=O)C3C(=O)N(c4ccccc4)C(=O)C132 (configuration not stated)  NCI/ADR-RES ovarian   3.57 µM
 2  COc1ccc(/C=N/C2=C(C#N)C(c3ccccc3)c3c(ccc4ccccc34)O2)cc1 (configuration not stated)  NCI/ADR-RES ovarian  0.916 µM
 3  O=C(Nc1cccc(-c2cccc(F)c2)c1)C1CCN(Cc2cccc3cccnc23)CC1  NCI/ADR-RES ovarian   2.76 µM
 4  Cc1c(C(=O)O)n(-c2ccc(Cl)cc2)c2ncnc(N)c12  NCI/ADR-RES ovarian   25.1 µM
 5  Nc1ccn(C2OC(CO)C3[O][Sn]([c]4ccccc4)([c]4ccccc4)[O]C32)c(=O)n1 (configuration not stated)  NCI/ADR-RES ovarian   4.73 µM
 6  Cc1ccc(-c2cc(C(=O)N3N=C(c4ccc(N)cc4)CC3c3ccc(Cl)cc3)c3ccccc3n2)cc1 (configuration not stated)  NCI/ADR-RES ovarian   2.54 µM
 7  Cc1c(C(N)=O)sc2c1c(=O)n(Cc1ccccc1)c1nnc(SCC(=O)Nc3ccc(Cl)cc3)n21  NCI/ADR-RES ovarian  > 100 µM
 8  CN([O-])c1nc(N(C)[O-])nc(N2CCOCC2)n1.CN([O-])c1nc(N(C)[OH2+])nc(N2CCOCC2)n1.[Fe+3]  NCI/ADR-RES ovarian  > 100 µM
 9       FC(F)(F)c1ccc(-c2cncn2-c2ccccc2)cc1  NCI/ADR-RES ovarian   7.13 µM
10  C[C@]12CCC3c4ccc(O)cc4CCC3C1CC[C@@]2(O)C#Cc1ccc(C#C/C=C\C#Cc2ccccc2N)cc1 (some centres not stated)  NCI/ADR-RES ovarian   17.7 µM
11  Clc1ccc(C2c3ccccc3-c3nccn32)c(Cl)c1 (configuration not stated)  NCI/ADR-RES ovarian   6.57 µM

----------
Each entry below carries its reported GI50.
System: SN12C renal
protocol-summary: NCI tumour cell line growth inhibition, 48 h
readout-kind: GI50

>>> df
                                   compound  readout_kind     result
0  CC1CN1C1=CC(=O)c2c(c(CO)cn2C)C1=O (stereo not given)          GI50  0.0706 µM
1  CCN(CC)c1ccc(/C=C2\SC(=O)C(Nc3nnc(-c4cccnc4SCc4ccccc4)o3)C2=O)cc1 (stereo not given)          GI50    4.11 µM
2  COC(=O)C1=C(O)[C@H](C(=O)OC)C2(O)[C@@H](C(=O)OC)[C@H]1C[C@@H](c1ccc(OC(=O)n3ccnc3)cc1)[C@@H]2C(=O)OC          GI50    11.4 µM
3  CN1CCN(c2ccc3nc(-c4c5cccccc-5[nH]c4=O)[nH]c3c2)CC1          GI50    5.37 µM
4  O=C(Nc1cccc(-c2cccc(F)c2)c1)C1CCN(Cc2cccc3cccnc23)CC1          GI50    1.97 µM
